Values from patent US8232270B2

Form field: AChE selectivity (one value per entry).
Assay target: mice brain AChE (Mus musculus)
Construct: Mice brain homogenate prepared in saline was used as a source of AChE; from tissue; host or cells: mouse brain homogenate
Sequence (P21836 32-614): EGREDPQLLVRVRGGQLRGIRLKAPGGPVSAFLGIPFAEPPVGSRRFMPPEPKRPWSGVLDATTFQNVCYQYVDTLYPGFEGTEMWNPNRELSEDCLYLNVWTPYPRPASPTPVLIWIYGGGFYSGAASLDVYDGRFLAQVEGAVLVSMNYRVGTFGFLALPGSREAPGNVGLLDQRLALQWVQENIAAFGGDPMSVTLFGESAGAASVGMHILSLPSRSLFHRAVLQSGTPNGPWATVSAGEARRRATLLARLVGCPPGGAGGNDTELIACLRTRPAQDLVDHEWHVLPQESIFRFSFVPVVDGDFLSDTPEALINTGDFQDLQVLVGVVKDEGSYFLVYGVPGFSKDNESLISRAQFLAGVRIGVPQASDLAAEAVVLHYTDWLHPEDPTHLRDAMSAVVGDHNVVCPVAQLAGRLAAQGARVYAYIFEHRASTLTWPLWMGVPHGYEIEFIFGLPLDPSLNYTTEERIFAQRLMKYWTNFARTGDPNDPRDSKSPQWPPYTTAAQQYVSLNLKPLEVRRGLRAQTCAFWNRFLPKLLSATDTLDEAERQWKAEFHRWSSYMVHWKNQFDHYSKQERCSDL
Protocol description: AChE inhibition, Ellman spectrophotometric assay, mice brain homogenate
Assay type: biochemical
Assay conditions: mice serum BChE versus mice brain AChE IC50
Counter-ions that a name gives are not always drawn.
Measured endpoint: AChE selectivity

INSERT INTO assay_data (molecule, assay_target, measured_endpoint, test_value) VALUES
  ('CC[C@@]1(c2cccc(O)c2)CCCCN(CCCCCCCCN2CCCC[C@@](CC)(c3cccc(O)c3)C2)C1 [(A = CH2, n = 8)]', 'mice brain AChE (Mus musculus)', 'AChE selectivity', 0.80),
  ('CC[C@@]1(c2cccc(O)c2)CCCCN(CCCCN2CCCC[C@@](CC)(c3cccc(O)c3)C2)C1 [(A = CH2, n = 4), Hydrochloride]', 'mice brain AChE (Mus musculus)', 'AChE selectivity', 0.0049),
  ('CC[C@@]1(c2cccc(O)c2)CCCCN(CCCCCCCN2CCCC[C@@](CC)(c3cccc(O)c3)C2)C1 [(A = CH2, n = 7)]', 'mice brain AChE (Mus musculus)', 'AChE selectivity', 0.38),
  ('CC[C@@]1(c2cccc(O)c2)CCCCN(CCCCCCCCCCN2CCCC[C@@](CC)(c3cccc(O)c3)C2)C1 [(A = CH2, n = 10)]', 'mice brain AChE (Mus musculus)', 'AChE selectivity', 1.8);
